Assay: In vivo pharmacokinetics in rats
Details: Wistar, rat, plasma, po; male rats, 2 mg/kg p.o.; AUCnorm intragastral / AUCnorm i.v. (0.5 mg/kg); read-out: F (oral bioavailability)

{"molecule": "N#Cc1cccc(S(=O)(=O)N2c3ccc(C(=O)NCc4ncc(C(F)(F)F)cc4Cl)cc3C3(CCS(=O)(=O)CC3)[C@@H]2C2CC2)c1 (single isomer, unassigned)", "bioavailability, %": 23}
{"molecule": "N#Cc1ccc(S(=O)(=O)N2c3ccc(C(=O)NCc4ncc(C(F)(F)F)cc4Cl)cc3C3(CCS(=O)(=O)CC3)[C@@H]2C2CC2)cc1 (single isomer, unassigned)", "bioavailability, %": 17}
{"molecule": "O=C(NCc1ncc(C(F)(F)F)cc1Cl)c1ccc2c(c1)C1(CCS(=O)(=O)CC1)[C@H](C1CC1)N2S(=O)(=O)c1ccc(F)cc1", "bioavailability, %": 87}
